Assay: Pharmacokinetic evaluation in Dog
Assay type: in vivo
Conditions: in vivo; Dog, IV 0.33 mg/kg
Experimental: Aza-T-dCyd was administered orally and intravenously at various concentrations to Mice, Rats and Dogs to determine the PK profile.
Quantity kind: Cmax (ng/mL)
Report only the number, with the unit ng/mL understood.

Ask: Quick check: Cmax of Nc1ncn([C@H]2CC(O)[C@@H](CO)S2)c(=O)n1 (stereo partly shown) ?
Result: 552

---

Assay: Pharmacokinetic evaluation in Rat
Type: in vivo
Settings: in vivo; Rat, PO 10 mg/kg
Protocol: Aza-T-dCyd was administered orally and intravenously at various concentrations to Mice, Rats and Dogs to determine the PK profile.
Quantity kind: Tmax (h)
Report only the number, with the unit h understood.

Ask: Quick check: Tmax of Nc1ncn([C@H]2CC(O)[C@@H](CO)S2)c(=O)n1 (stereo partly shown) ?
Result: 2

---

assay: Pharmacokinetic evaluation in Dog; assay type: in vivo; details: in vivo; Dog, PO 0.15 mg/kg; read-out: T½ (converted)
Quantity kind: half-life

Ask: Quick check: half-life of Nc1ncn([C@H]2CC(O)[C@@H](CO)S2)c(=O)n1 (stereo partly shown) ?
Result: 1.86 h

---

assay: Pharmacokinetic evaluation in Mice (Table 4); details: mouse, in vivo, Table 4, PO 0.5 mg/kg
Quantity kind: Tmax
Write your answer as a measured quantity: the number, then the unit.

Ask: Quick check: Tmax of Nc1ncn([C@H]2CC(O)[C@@H](CO)S2)c(=O)n1 (stereo partly shown) ?
Result: 30 min

---

Assay: Pharmacokinetic evaluation in Rat
Format: in vivo
Details: in vivo; Rat, PO 10 mg/kg
Description: Aza-T-dCyd was administered orally and intravenously at various concentrations to Mice, Rats and Dogs to determine the PK profile.
Quantity kind: AUC(0-inf)
Write your answer as a measured quantity: the number, then the unit.

Ask: Quick check: AUC(0-inf) of Nc1ncn([C@H]2CC(O)[C@@H](CO)S2)c(=O)n1 (stereo partly shown) [Aza-T-dCyd, 4′-thio-5-aza-2′-deoxycytidine] ?
Result: 9240 ng·h/mL

---

assay: Pharmacokinetic evaluation in Dog; type: in vivo; conditions: in vivo; Dog, PO 0.67 mg/kg
Quantity kind: AUC(0-t) (ng·h/mL)
Report only the number, with the unit ng·h/mL understood.

Ask: Quick check: AUC(0-t) of Nc1ncn([C@H]2CC(O)[C@@H](CO)S2)c(=O)n1 (stereo partly shown) [Aza-T-dCyd, 4′-thio-5-aza-2′-deoxycytidine] ?
Result: 1570

---

test: Pharmacokinetic evaluation in Dog; type: in vivo; details: in vivo; Dog, PO 0.67 mg/kg
Quantity kind: AUC(0-inf) (ng·h/mL)
Report only the number, with the unit ng·h/mL understood.

Ask: Quick check: AUC(0-inf) of Nc1ncn([C@H]2CC(O)[C@@H](CO)S2)c(=O)n1 (stereo partly shown) [Aza-T-dCyd, 4′-thio-5-aza-2′-deoxycytidine] ?
Result: 1760

---

test system: MOLT-4; assay: drug activity profiling cytotoxicity; type: cell-based; conditions: Homo sapiens; MOLT-4 cell line, ALL; read-out: Aza-T-dCyd IC50
Quantity kind: IC50 (nM)
Report only the number, with the unit nM understood.

Ask: Quick check: IC50 of Nc1ncn([C@H]2CC(O)[C@@H](CO)S2)c(=O)n1 (stereo partly shown) ?
Result: 35
